Sourced from patent US20240083853A1

target: Recombinant human HSD17B13 enzyme (Homo sapiens); test: HSD17b13 NAD(P)H-Glo biochemical assay; settings: 50 uM estradiol, 1 mM NAD+, NAD(P)H-Glo luminescence; read-out: HSD17β13 IC50
Field: IC50. Provide a value for each of the compounds that follow.

INPUT: Look up IC50: CS(=O)(=O)N1CCC(Oc2ccc(-n3ncc4cc(F)c(O)c(F)c43)cc2)CC1
OUTPUT: 100 to 1000 nM

INPUT: // next record C[C@H]1CN(c2ccc(-n3ncc4cc(F)c(O)c(F)c43)cc2)C[C@H](C)O1 [Compound 24.9]
OUTPUT: < 100 nM

INPUT: // next record Oc1cccc(-c2ccc(-n3ncc4c(C(F)(F)F)c(F)c(O)cc43)cc2)c1
OUTPUT: 100 to 1000 nM

INPUT: // next record Oc1cc2c(cnn2-c2ccc(Nc3ccccc3)cc2)cc1F
OUTPUT: 100 to 1000 nM

* * *

Biological target: Recombinant human HSD17B13 enzyme (Homo sapiens, UniProt Q7Z5P4)
Sequence (Q7Z5P4 20-300): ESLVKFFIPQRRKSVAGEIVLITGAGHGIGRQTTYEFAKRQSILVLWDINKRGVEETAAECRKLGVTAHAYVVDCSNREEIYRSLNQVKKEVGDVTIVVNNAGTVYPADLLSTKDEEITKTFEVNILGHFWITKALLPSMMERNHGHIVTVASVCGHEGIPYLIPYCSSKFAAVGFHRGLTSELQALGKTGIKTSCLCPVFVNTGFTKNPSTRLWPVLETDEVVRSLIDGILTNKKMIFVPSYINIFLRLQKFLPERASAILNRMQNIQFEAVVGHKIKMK
Experiment: HSD17b13 NAD(P)H-Glo biochemical assay
Conditions: 50 uM estradiol, 1 mM NAD+, NAD(P)H-Glo luminescence; read-out: HSD17β13 IC50
pIC50: −log10 of the molar value.
parameter.measured: pIC50

INPUT: Hello, I am looking for reported pIC50 with Recombinant human HSD17B13 enzyme (Homo sapiens, UniProt Q7Z5P4) for CC1CN(c2ccc(-n3ncc4cc(F)c(O)c(F)c43)cc2)CC(C)S1(=O)=O (stereo not shown) . Could you help?
OUTPUT: 6.00 to 7.00

INPUT: // next record CC(C)C1CN(c2ccc(-n3ncc4cc(F)c(O)c(F)c43)cc2)C1
OUTPUT: > 7.00

INPUT: // next record Oc1cccc(-c2ccc(-n3ncc4cc(Cl)c(O)cc43)cc2)c1
OUTPUT: 4.52 to 6.00

INPUT: // next record N#Cc1ccc(-c2ccc(-n3ncc4cc(F)c(O)cc43)cc2)cc1
OUTPUT: > 7.00

INPUT: // next record Oc1c(F)cc2cnn(-c3ccc(N4CCC5(CC4)CNC5)cc3)c2c1F
OUTPUT: 6.00 to 7.00

INPUT: // next record Oc1cc2c(cnn2-c2ccc(-c3ccc(Cl)cc3)cc2)cc1F
OUTPUT: 6.00 to 7.00

INPUT: // next record CS(=O)(=O)C1CN(c2ccc(-n3nnc4cc(F)c(O)c(F)c43)cc2)C1
OUTPUT: 6.00 to 7.00

INPUT: // next record CS(=O)(=O)N1CCN(c2ccc(-n3ncc4cc(F)c(O)cc43)cc2)CC1
OUTPUT: 4.52 to 6.00

INPUT: // next record CC1(C)CCN(c2ccc(-n3ncc4cc(F)c(O)c(F)c43)cc2)C1
OUTPUT: > 7.00

INPUT: // next record CS(=O)(=O)N1CCN(c2ccc(-n3cnc4cc(F)c(O)c(F)c43)cc2)CC1
OUTPUT: 6.00 to 7.00

INPUT: // next record Oc1c(F)cc2cnn(-c3ccc(N4CCC5(CCO5)CC4)cc3)c2c1F
OUTPUT: 6.00 to 7.00

INPUT: // next record N#Cc1ccc(-c2ccc(-n3ncc4cc(F)c(O)c(F)c43)cc2)cc1
OUTPUT: > 7.00

INPUT: // next record N#CC1CCN(c2ccc(-n3ncc4cc(F)c(O)c(F)c43)cc2)CC1
OUTPUT: > 7.00

INPUT: // next record Oc1c(F)cc2nnn(-c3ccc(N4CC5(CCOCC5)C4)cn3)c2c1F
OUTPUT: 6.00 to 7.00

INPUT: // next record O=C(O)c1cccc(-c2ccc(-n3ncc4cc(F)c(O)cc43)cc2)c1
OUTPUT: 4.52 to 6.00

INPUT: // next record CC1(C)CCN(c2ccc(-n3ncc4c(C(F)(F)F)c(F)c(O)cc43)cc2)CC1
OUTPUT: 6.00 to 7.00

INPUT: // next record CN1CCN(c2ccc(-n3ncc4cc(F)c(O)c(F)c43)cc2)CC1
OUTPUT: 6.00 to 7.00

INPUT: // next record O=C(O)c1ccc(-c2ccc(-n3ncc4cc(F)c(O)cc43)cc2)cc1
OUTPUT: 4.52 to 6.00

INPUT: // next record Oc1ccc(-c2ccc(-n3ncc4cc(F)c(O)cc43)cc2)cc1
OUTPUT: 6.00 to 7.00

INPUT: // next record Cc1cccc(-c2ccc(-n3ncc4cc(F)c(O)cc43)cc2)c1
OUTPUT: 6.00 to 7.00

INPUT: // next record Oc1c(F)cc2cnn(-c3ccc(N4CCCC4)cc3)c2c1F
OUTPUT: > 7.00

INPUT: // next record CS(=O)(=O)N1CCN(c2cnc(-n3ncc4cc(F)c(O)c(F)c43)cn2)CC1
OUTPUT: 6.00 to 7.00

INPUT: // next record CC1(C)CCN(c2ncc(-n3nnc4cc(F)c(O)c(F)c43)cn2)CC1
OUTPUT: > 7.00

INPUT: // next record CC1(CO)CCN(c2ccc(-n3ncc4cc(F)c(O)c(F)c43)cc2)CC1
OUTPUT: 6.00 to 7.00

INPUT: // next record CCS(=O)(=O)N1CCN(c2ccc(-n3ncc4cc(F)c(O)c(F)c43)cc2)CC1
OUTPUT: 6.00 to 7.00

INPUT: // next record Oc1cc(-c2ccc(-n3ncc4cc(F)c(O)c(F)c43)cc2)ccc1Cl
OUTPUT: > 7.00

INPUT: // next record CC1(C)CCN(c2cnc(-n3ncc4cc(F)c(O)c(F)c43)cn2)CC1
OUTPUT: > 7.00

INPUT: // next record Oc1cccc(-c2ccc(-n3ncc4cc(F)c(O)c(Cl)c43)cc2)c1
OUTPUT: 6.00 to 7.00

INPUT: // next record Oc1c(F)cc2cnn(-c3ccc(N4CCC5(CC4)COC5)cc3)c2c1F
OUTPUT: > 7.00

INPUT: // next record O=S1(=O)CCC2(CC1)CN(c1ccc(-n3ncc4cc(F)c(O)c(F)c43)cc1)C2
OUTPUT: 6.00 to 7.00

INPUT: // next record Cc1ccc(-c2ccc(-n3ncc4cc(F)c(O)cc43)cc2)cc1
OUTPUT: 6.00 to 7.00

* * *

Field: IC50. Provide a value for each of the molecules that follow.
target: Recombinant human HSD17B13 enzyme (Homo sapiens); experiment: HSD17b13 NAD(P)H-Glo biochemical assay; settings: 50 uM estradiol, 1 mM NAD+, NAD(P)H-Glo luminescence; read-out: HSD17β13 IC50

INPUT: Look up IC50: CS(=O)(=O)N1CCN(c2ccc(-n3nnc4cc(F)c(O)c(F)c43)nc2)CC1
OUTPUT: 100 to 1000 nM

INPUT: // next record CS(=O)(=O)N1CC(c2ccc(-n3ncc4cc(F)c(O)c(F)c43)cc2)C1
OUTPUT: 100 to 1000 nM

INPUT: // next record COc1ccc(-c2ccc(-n3ncc4cc(F)c(O)cc43)cc2)cc1
OUTPUT: 100 to 1000 nM

INPUT: // next record CC(C)N1CCC(c2ccc(-n3ncc4cc(F)c(O)c(F)c43)cc2)CC1
OUTPUT: < 100 nM

INPUT: // next record C[C@@H]1CN(c2ccc(-n3ncc4cc(F)c(O)c(F)c43)cc2)C[C@@H](C)O1
OUTPUT: < 100 nM

INPUT: // next record CS(=O)(=O)N1CCC(c2ccc(-n3ncc4cc(F)c(O)c(F)c43)cc2)CC1
OUTPUT: < 100 nM

INPUT: // next record CC(=O)Nc1cccc(-c2ccc(-n3ncc4cc(F)c(O)cc43)cc2)c1
OUTPUT: 1000 to 30000 nM

INPUT: // next record C[C@H]1CN(c2ccc(-n3ncc4cc(F)c(O)c(F)c43)cc2)C[C@H](C)S1 (relative stereo)
OUTPUT: < 100 nM

* * *

target: Recombinant human HSD17B13 enzyme (Homo sapiens, UniProt Q7Z5P4); experiment: HSD17b13 NAD(P)H-Glo biochemical assay; conditions: 50 uM estradiol, 1 mM NAD+, NAD(P)H-Glo luminescence; read-out: HSD17β13 IC50
pIC50: −log10 of the molar value.
parameter.measured: pIC50

INPUT: Look up pIC50: CCC1(C)CCN(c2ccc(-n3ncc4cc(F)c(O)c(F)c43)cc2)CC1 [Compound 24.5]
OUTPUT: > 7.00

INPUT: // next record Oc1ccc(-c2ccc(-n3ncc4cc(F)c(O)c(F)c43)cc2)cc1 [Compound 13.1]
OUTPUT: > 7.00

INPUT: // next record Oc1ccc2cnn(-c3ccc(-c4ccc(O)c(Cl)c4)cc3)c2c1 [Compound 18.1]
OUTPUT: 6.00 to 7.00

INPUT: // next record CC1(C)CCN(c2ccc(N3C(=O)Cc4cc(F)c(O)c(F)c43)cc2)CC1 [Compound 33]
OUTPUT: 6.00 to 7.00
